Values were extracted from paper PMC6838110.

SYSTEM: ATM (Homo sapiens)
Construct: ATM (pATM Ser1981) in HT29; endogenous in cells
Sequence (Q13315 whole entry): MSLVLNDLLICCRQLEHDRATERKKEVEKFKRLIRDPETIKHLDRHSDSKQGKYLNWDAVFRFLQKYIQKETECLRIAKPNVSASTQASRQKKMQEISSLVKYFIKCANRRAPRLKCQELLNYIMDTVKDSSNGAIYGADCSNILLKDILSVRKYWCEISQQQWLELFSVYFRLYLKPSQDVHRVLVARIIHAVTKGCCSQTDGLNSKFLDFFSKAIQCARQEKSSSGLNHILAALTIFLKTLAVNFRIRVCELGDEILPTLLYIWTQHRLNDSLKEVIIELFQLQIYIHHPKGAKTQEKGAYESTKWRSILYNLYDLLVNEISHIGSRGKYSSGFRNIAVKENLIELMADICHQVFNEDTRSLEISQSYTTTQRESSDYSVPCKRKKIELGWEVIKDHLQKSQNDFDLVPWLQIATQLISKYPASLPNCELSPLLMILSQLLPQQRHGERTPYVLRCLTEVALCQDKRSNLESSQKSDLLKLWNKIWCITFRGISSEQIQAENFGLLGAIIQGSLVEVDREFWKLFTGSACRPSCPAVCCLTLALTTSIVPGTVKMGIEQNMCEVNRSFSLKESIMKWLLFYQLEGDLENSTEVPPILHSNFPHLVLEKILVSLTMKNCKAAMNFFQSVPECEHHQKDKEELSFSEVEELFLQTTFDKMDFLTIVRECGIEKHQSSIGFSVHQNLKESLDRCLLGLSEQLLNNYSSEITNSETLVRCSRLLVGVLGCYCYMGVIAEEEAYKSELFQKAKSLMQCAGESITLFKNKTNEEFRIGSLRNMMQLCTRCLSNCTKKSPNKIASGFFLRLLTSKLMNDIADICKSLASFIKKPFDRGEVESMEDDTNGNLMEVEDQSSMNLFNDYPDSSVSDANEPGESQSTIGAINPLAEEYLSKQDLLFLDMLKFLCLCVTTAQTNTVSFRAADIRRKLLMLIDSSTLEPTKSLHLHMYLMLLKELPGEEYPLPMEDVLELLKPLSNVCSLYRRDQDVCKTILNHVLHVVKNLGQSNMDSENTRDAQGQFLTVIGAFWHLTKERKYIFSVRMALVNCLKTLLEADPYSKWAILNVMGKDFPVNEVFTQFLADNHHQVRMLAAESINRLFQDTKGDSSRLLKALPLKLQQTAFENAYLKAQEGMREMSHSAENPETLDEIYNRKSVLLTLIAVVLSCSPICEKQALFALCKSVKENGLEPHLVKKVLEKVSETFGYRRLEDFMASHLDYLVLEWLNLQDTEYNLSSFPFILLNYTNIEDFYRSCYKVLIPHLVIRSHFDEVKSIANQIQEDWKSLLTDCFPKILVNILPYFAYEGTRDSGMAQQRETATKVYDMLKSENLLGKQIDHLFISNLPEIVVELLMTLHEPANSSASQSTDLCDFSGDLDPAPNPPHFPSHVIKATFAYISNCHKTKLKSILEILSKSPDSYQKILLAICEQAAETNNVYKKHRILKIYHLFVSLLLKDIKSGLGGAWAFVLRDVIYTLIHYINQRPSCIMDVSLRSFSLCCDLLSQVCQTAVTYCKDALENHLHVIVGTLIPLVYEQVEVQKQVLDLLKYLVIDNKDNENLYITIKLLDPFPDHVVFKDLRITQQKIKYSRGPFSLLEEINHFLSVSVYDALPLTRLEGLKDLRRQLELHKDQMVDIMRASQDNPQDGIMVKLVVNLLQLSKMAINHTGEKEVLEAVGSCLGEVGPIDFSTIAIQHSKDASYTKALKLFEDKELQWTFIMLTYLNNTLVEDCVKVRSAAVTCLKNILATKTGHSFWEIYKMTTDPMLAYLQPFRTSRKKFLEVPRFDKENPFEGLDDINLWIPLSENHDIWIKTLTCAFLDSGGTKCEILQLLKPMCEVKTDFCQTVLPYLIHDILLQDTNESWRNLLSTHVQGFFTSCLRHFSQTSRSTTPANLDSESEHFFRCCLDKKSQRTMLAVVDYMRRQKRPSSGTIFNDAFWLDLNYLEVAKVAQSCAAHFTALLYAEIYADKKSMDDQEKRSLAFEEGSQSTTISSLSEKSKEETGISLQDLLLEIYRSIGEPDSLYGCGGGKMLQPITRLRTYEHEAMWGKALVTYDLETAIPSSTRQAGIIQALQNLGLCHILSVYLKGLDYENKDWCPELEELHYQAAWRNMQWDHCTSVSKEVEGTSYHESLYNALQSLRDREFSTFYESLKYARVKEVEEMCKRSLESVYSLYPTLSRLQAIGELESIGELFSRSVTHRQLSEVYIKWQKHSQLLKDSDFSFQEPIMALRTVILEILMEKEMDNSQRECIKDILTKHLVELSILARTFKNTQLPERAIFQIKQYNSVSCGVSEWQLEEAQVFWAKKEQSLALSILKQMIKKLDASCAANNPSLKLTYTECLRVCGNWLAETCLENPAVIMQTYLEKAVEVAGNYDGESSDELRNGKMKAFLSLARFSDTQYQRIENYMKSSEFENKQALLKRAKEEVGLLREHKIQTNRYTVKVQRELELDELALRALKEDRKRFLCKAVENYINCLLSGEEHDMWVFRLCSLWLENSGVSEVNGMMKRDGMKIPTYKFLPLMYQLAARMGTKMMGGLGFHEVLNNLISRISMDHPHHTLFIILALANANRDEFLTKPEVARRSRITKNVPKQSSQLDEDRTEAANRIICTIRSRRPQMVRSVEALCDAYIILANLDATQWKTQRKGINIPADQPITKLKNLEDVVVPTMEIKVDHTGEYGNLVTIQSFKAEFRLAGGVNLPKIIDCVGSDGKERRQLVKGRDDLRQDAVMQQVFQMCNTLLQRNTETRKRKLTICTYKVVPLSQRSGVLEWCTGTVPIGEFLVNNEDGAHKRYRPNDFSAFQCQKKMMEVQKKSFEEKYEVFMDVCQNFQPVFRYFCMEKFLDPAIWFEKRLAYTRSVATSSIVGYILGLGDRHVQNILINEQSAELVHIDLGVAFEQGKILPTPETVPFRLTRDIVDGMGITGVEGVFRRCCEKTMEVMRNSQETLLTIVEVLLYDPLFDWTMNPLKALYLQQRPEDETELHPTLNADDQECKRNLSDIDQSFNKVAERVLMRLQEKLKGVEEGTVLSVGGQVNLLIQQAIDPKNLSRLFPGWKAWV
TEST_PROTOCOL: ATM pSer1981 imaging assay in irradiated HT29 cells
SETTINGS: geometric mean; Supplementary Table 1; read-out: Compound IC50 ATM
OBSERVATION_TYPE: IC50

In the examples that follow, each entry is paired with its recorded IC50.
[
  {
    "MOLECULE": "CNC(=O)c1ccnc2c([C@H](C)CNc3cc(-c4cnc(C)nc4)ncn3)cccc12 [M9831/VX-984]",
    "IC50": "> 30 µM"
  },
  {
    "MOLECULE": "CCN1CCN(CC(=O)Nc2ccc(-c3cccc4c(=O)cc(N5CCOCC5)oc34)c3sc4ccccc4c23)CC1 [KU-0060648]",
    "IC50": "> 30 µM"
  },
  {
    "MOLECULE": "COc1ccc([C@@H](O)c2cc(-c3ncnc4cc(N5CCOCC5)ccc34)c(F)cc2Cl)nn1 [M3814]",
    "IC50": "> 30 µM"
  }
]

// switching to the query molecule
## Input Give the measured IC50 of O=c1cc(N2CCOCC2)oc2c(-c3cccc4c3sc3ccccc34)cccc12 [NU7441] .
## Output > 3.1 µM
